Biological target: T1, mouse MET ECD (mouse, UniProt P16056 25-931)
T1 construct: range 1-931; recombinant ECD made by the applicants; the stated range begins at residue 1; also called mMET; mMET ECD
T1 sequence (P16056 25-931 limits assumed, form in doubt): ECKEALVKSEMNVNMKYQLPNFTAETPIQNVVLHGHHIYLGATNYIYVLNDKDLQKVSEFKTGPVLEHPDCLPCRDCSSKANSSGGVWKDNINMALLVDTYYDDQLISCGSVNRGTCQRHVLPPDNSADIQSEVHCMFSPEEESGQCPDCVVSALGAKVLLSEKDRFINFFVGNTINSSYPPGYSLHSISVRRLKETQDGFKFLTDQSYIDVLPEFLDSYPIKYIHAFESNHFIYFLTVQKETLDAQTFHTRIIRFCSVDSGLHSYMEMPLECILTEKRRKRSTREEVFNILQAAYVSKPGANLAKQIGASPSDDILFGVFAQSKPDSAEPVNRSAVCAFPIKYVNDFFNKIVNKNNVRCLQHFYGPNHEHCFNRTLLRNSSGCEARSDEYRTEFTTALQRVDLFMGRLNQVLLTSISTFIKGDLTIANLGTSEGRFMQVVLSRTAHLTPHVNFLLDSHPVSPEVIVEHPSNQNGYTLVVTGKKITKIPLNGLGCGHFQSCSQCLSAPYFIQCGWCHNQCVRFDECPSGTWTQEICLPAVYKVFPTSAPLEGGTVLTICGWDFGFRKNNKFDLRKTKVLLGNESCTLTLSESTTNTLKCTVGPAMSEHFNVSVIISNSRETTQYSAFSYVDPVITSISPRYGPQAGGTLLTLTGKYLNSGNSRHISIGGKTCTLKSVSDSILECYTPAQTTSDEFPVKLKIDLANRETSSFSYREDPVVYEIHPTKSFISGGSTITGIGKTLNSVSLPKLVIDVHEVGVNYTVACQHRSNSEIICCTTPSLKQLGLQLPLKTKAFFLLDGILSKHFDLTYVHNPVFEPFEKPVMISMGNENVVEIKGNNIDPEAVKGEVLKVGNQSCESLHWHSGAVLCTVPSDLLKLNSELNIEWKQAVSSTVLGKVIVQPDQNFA
Experiment: ELISA, MET ECD in solid phase, mAb 0-20 nM
pEC50: −log10 of the molar value.
Listed here: items and their measured pEC50.
Property Label: pEC50

Binder | Observed
74C8 chimeric llama-human IgG1 mAb (antibody, V domains shown, llama VH on human IgG1 CH1-CH2-CH3, llama VL on human lambda CL) VH: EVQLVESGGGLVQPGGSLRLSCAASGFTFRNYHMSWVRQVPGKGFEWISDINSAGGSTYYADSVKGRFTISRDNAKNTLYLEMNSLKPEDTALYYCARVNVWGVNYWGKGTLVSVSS VL: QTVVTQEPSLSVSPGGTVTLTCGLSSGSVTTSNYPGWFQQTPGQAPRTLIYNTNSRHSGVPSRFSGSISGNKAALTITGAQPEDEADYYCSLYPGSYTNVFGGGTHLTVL | 9.94
71G12 chimeric llama-human IgG1 mAb (antibody, V domains shown, llama VH on human IgG1 CH1-CH2-CH3, llama VL on human kappa CL) VH: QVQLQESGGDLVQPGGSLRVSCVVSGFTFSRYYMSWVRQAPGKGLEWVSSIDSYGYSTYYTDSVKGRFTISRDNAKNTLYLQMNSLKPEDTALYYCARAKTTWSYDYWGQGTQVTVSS VL: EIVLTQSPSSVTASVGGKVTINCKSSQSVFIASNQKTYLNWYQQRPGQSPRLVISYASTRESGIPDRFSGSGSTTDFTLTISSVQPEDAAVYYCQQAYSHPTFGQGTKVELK | 9.90
71D4 chimeric llama-human IgG1 mAb (antibody, V domains shown, llama VH on human IgG1 CH1-CH2-CH3, llama VL on human lambda CL) VH: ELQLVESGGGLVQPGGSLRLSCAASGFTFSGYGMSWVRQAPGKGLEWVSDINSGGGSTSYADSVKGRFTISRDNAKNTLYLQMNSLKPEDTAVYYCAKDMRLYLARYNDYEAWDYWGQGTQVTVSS VL: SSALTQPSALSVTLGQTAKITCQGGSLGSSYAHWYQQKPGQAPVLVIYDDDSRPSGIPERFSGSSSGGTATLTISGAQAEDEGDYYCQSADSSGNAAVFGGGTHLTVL | 9.56

Data origin, for the record: patent US20210087281A1
